As shown below, each of these compounds has a reported Emax value.
- System: primary human mesenchymal stem cells (hMSCs)
- PROCEDURE_SUMMARY: Induction of chondrogenesis in hMSCs (Rhodamine B / Nile Red nodule imaging)
- Type: cell-based
- TEST_CONTEXT: maximum activity relative to TGF-β3 (10 ng/mL) positive control, read-out: Max. Activity as % TGF-β3 activity
Express your answer in %, writing the number without its unit.

Consider CC(C)(C)CC(=O)Nc1cncc(-c2ccc3[nH]nc(-c4cc5cnccc5[nH]4)c3c2)c1 [Compound 268] . Its measured Emax is 208

Consider CCNCc1cncc(-c2ccc3[nH]nc(-c4cc5c(-c6ccccc6F)nccc5[nH]4)c3c2)c1 [Compound 62] . Its measured Emax is 59

Consider Nc1cncc(-c2ccc3[nH]nc(-c4cc5c(-c6ccccc6F)nccc5[nH]4)c3c2)c1 [Compound 59] . Its measured Emax is 70

Consider COc1cncc(-c2ccc3[nH]nc(-c4cc5c(-c6ccco6)nccc5[nH]4)c3c2)c1 [Compound 991] . Its measured Emax is 36

Consider c1cc2[nH]c(-c3n[nH]c4ccc(-c5cncc(CN6CCCCC6)c5)cc34)cc2c(-c2ccoc2)n1 [Compound 323] . Its measured Emax is 177

###

- System: Wnt activity (Sp5-Luc reporter, SW480 colon carcinoma cells)
- PROCEDURE_SUMMARY: Screening assay for Wnt activity (Sp5-Luc reporter gene assay in SW480 cells)
- Format: cell-based
- TEST_CONTEXT: Homo sapiens, SW480; read-out: percent inhibition at 10 μM
PARAMETER_MEASURED: inhibition at 10 µM

Consider `CN1CCN(c2nccc3[nH]c(-c4n[nH]c5ccc(-c6cncc(NC(=O)CC7CCNCC7)c6)cc45)cc23)CC1` . Its measured inhibition at 10 µM is 0%

Consider `CN1CCN(c2nccc3[nH]c(-c4n[nH]c5ccc(-c6cncc(NC(=O)C7CCCC7)c6)cc45)cc23)CC1` . Its measured inhibition at 10 µM is 17.1%

Consider `O=C(Nc1cncc(-c2ccc3[nH]nc(-c4cc5c(-c6ccncc6)nccc5[nH]4)c3c2)c1)C1CCCC1` . Its measured inhibition at 10 µM is 20.6%

Consider `CC(C)(C)CC(=O)Nc1cncc(-c2ccc3[nH]nc(-c4cc5c(-c6ccc(F)cc6)nccc5[nH]4)c3c2)c1` . Its measured inhibition at 10 µM is 19.5%

Consider `CN(C)Cc1cncc(-c2ccc3[nH]nc(-c4cc5c(-c6ccc(F)cc6)nccc5[nH]4)c3c2)c1` . Its measured inhibition at 10 µM is 55.7%

###

As shown below, each of these compounds has a reported EC50 value.
- Tested on: primary human fibroblasts derived from IPF patients (LL29 cells) treated with TGF-β1
- PROCEDURE_SUMMARY: Inhibition of the fibrotic process (αSMA staining) in TGF-β1-treated fibroblasts
- Type: cell-based
- TEST_CONTEXT: Fibroblast, 96 h, % αSMA-positive LL29 cells, TGF-β1 20 ng/mL, 4 days
Express your answer in nM, writing the number without its unit.

Consider `CN1CCN(c2nccc3[nH]c(-c4n[nH]c5ccc(-c6cncc(NC(=O)CC7CCNCC7)c6)cc45)cc23)CC1` . Its measured EC50 is 9900

###

- Test system: primary human fibroblasts derived from IPF patients (LL29 cells) treated with TGF-β1
- PROCEDURE_SUMMARY: Inhibition of the fibrotic process (αSMA staining) in TGF-β1-treated fibroblasts
- Type: cell-based
- TEST_CONTEXT: Fibroblast, 96 h, read-out: percent inhibition at 10 μM
As shown below, each of these compounds has a reported inhibition at 10 µM value.
Express your answer in %, writing the number without its unit.

Worked cases, inhibition at 10 µM given:
Consider CC(C)(C)CC(=O)Nc1cncc(-c2ccc3[nH]nc(-c4cc5c(-c6ccccc6F)nccc5[nH]4)c3c2)c1 [Compound 72] . Its measured inhibition at 10 µM is 0

Consider CS(=O)(=O)NCc1cc(F)cc(-c2nccc3[nH]c(-c4n[nH]c5ccc(-c6cncnc6)cc45)cc23)c1 [Compound 503] . Its measured inhibition at 10 µM is 15.5

Consider CS(=O)(=O)NCc1cc(F)cc(-c2nccc3[nH]c(-c4n[nH]c5ccc(-c6ccncc6)cc45)cc23)c1 [Compound 494] . Its measured inhibition at 10 µM is 0

More entries:
Consider Fc1ccccc1-c1nccc2[nH]c(-c3n[nH]c4ccc(-c5cncc(OC6CCNCC6)c5)cc34)cc12 [Compound 544] . Its measured inhibition at 10 µM is 0

###

- System: primary human mesenchymal stem cells (hMSCs)
- PROCEDURE_SUMMARY: Induction of chondrogenesis in hMSCs (Rhodamine B / Nile Red nodule imaging)
- Assay type: cell-based
- TEST_CONTEXT: maximum activity relative to TGF-β3 (10 ng/mL) positive control, read-out: Max. Activity as % TGF-β3 activity
Label scheme for Emax: lower than 90% is label 0, 90% and above is label 1.

Say whether `CN1CCN(c2nccc3[nH]c(-c4n[nH]c5ccc(-c6cncc(CN7CCCCC7)c6)cc45)cc23)CC1` shows Emax of 90% or more.
label 0

Say whether `CCC(=O)Nc1cncc(-c2ccc3[nH]nc(-c4cc5c(N6CCCCC6)nccc5[nH]4)c3c2)c1` shows Emax of 90% or more.
label 1

Say whether `CN1CCN(c2nccc3[nH]c(-c4n[nH]c5ccc(-c6cncc(NC(=O)C7CCCCC7)c6)cc45)cc23)CC1` shows Emax of 90% or more.
label 0

Say whether `c1cncc(-c2ccc3[nH]nc(-c4cc5cnccc5[nH]4)c3c2)c1` shows Emax of 90% or more.
label 1

Say whether `O=C(Nc1cncc(-c2ccc3[nH]nc(-c4cc5c(-c6cccnc6)nccc5[nH]4)c3c2)c1)C1CCC1` shows Emax of 90% or more.
label 1

More entries:
Say whether `c1ncc(-c2ccc3[nH]nc(-c4cc5c(-c6ccoc6)nccc5[nH]4)c3c2)cn1` shows Emax of 90% or more.
label 0

Say whether `COc1cncc(-c2ccc3[nH]nc(-c4cc5c(-c6ccoc6)nccc5[nH]4)c3c2)c1` shows Emax of 90% or more.
label 0

Say whether `O=C(Nc1cncc(-c2ccc3[nH]nc(-c4cc5c(-c6cccnc6)nccc5[nH]4)c3c2)c1)c1ccccc1` shows Emax of 90% or more.
label 0

Say whether `CCNCc1cncc(-c2ccc3[nH]nc(-c4cc5cnccc5[nH]4)c3c2)c1` shows Emax of 90% or more.
label 1

Say whether `Nc1cncc(-c2ccc3[nH]nc(-c4cc5c(-c6cccnc6)nccc5[nH]4)c3c2)c1` shows Emax of 90% or more.
label 1

Say whether `O=C(Nc1cncc(-c2ccc3[nH]nc(-c4cc5c(-c6ccc(F)cc6)nccc5[nH]4)c3c2)c1)C1CCC1` shows Emax of 90% or more.
label 1

Say whether `c1cc2[nH]c(-c3n[nH]c4ccc(-c5cncc(CN6CCCCC6)c5)cc34)cc2cn1` shows Emax of 90% or more.
label 1

Say whether `CS(=O)(=O)NCc1cc(F)cc(-c2nccc3[nH]c(-c4n[nH]c5ccc(-c6cncc(CN7CCC(F)(F)C7)c6)cc45)cc23)c1` shows Emax of 90% or more.
label 1

Say whether `c1cc2[nH]c(-c3n[nH]c4ccc(-c5cncc(OCCN6CCCC6)c5)cc34)cc2cn1` shows Emax of 90% or more.
label 1

###

- System: primary human fibroblasts derived from IPF patients (LL29 cells) treated with TGF-β1
- PROCEDURE_SUMMARY: Inhibition of the fibrotic process (αSMA staining) in TGF-β1-treated fibroblasts
- Assay type: cell-based
- TEST_CONTEXT: Fibroblast, 96 h, % αSMA-positive LL29 cells, TGF-β1 20 ng/mL, 4 days
As shown below, each of these compounds has a reported pEC50 value.
pEC50 here is simply -log10 of the concentration when that concentration is written in mol/L.

Consider c1cc2[nH]c(-c3n[nH]c4ccc(-c5cncc(OCCN6CCCC6)c5)cc34)cc2cn1 [Compound 658] . Its measured pEC50 is 6.47

Consider CN1CCN(c2nccc3[nH]c(-c4n[nH]c5ccc(-c6ccccn6)cc45)cc23)CC1 [Compound 252] . Its measured pEC50 is 5.84

More entries:
Consider CN(C)CCOc1cncc(-c2ccc3[nH]nc(-c4cc5c(-c6ccc(F)cc6)nccc5[nH]4)c3c2)c1 [Compound 531] . Its measured pEC50 is 6.04

Consider CCC(=O)Nc1cncc(-c2ccc3[nH]nc(-c4cc5cnccc5[nH]4)c3c2)c1 [Compound 253] . Its measured pEC50 is 6.30

Consider Cn1cc(-c2ccc3[nH]nc(-c4cc5c(-c6cccnc6)nccc5[nH]4)c3c2)cn1 [Compound 556] . Its measured pEC50 is 7.54

###

- Test system: primary human mesenchymal stem cells (hMSCs)
- PROCEDURE_SUMMARY: Induction of chondrogenesis in hMSCs (Rhodamine B / Nile Red nodule imaging)
- Assay type: cell-based
- TEST_CONTEXT: maximum activity relative to TGF-β3 (10 ng/mL) positive control, read-out: Max. Activity as % TGF-β3 activity
PARAMETER_MEASURED: Emax (%)
Express your answer in %, writing the number without its unit.

Worked cases, Emax given:
Consider `CCCCC(=O)Nc1cncc(-c2ccc3[nH]nc(-c4cc5c(-c6ccccc6F)nccc5[nH]4)c3c2)c1` . Its measured Emax is 76

Consider `O=C(Nc1cncc(-c2ccc3[nH]nc(-c4cc5c(N6CCCCC6)nccc5[nH]4)c3c2)c1)C1CC1` . Its measured Emax is 146

More entries:
Consider `O=C(Cc1ccccc1)Nc1cncc(-c2ccc3[nH]nc(-c4cc5cnccc5[nH]4)c3c2)c1` . Its measured Emax is 119

Consider `Cc1ccncc1-c1ccc2[nH]nc(-c3cc4c(-c5ccoc5)nccc4[nH]3)c2c1` . Its measured Emax is 153

Consider `CCCCC(=O)Nc1cncc(-c2ccc3[nH]nc(-c4cc5c(N6CCN(C)CC6)nccc5[nH]4)c3c2)c1` . Its measured Emax is 49

Consider `Fc1ccc(-c2nccc3[nH]c(-c4n[nH]c5ccc(-c6cncnc6)cc45)cc23)cc1` . Its measured Emax is 194

Consider `CN1CCN(c2nccc3[nH]c(-c4n[nH]c5ccc(-c6cncc(CN7CCCC7)c6)cc45)cc23)CC1` . Its measured Emax is 31

Consider `O=C(Cc1ccccc1)Nc1cncc(-c2ccc3[nH]nc(-c4cc5c(N6CCCCC6)nccc5[nH]4)c3c2)c1` . Its measured Emax is 73

Consider `CN(C)Cc1cncc(-c2ccc3[nH]nc(-c4cc5c(-c6cccc(F)c6)nccc5[nH]4)c3c2)c1` . Its measured Emax is 42

Consider `c1cncc(-c2ccc3[nH]nc(-c4cc5c(N6CCCCC6)nccc5[nH]4)c3c2)c1` . Its measured Emax is 172

Consider `c1cc2[nH]c(-c3n[nH]c4ccc(-c5cncnc5)cc34)cc2cn1` . Its measured Emax is 22

Consider `CC(C)C(=O)Nc1cncc(-c2ccc3[nH]nc(-c4cc5cnccc5[nH]4)c3c2)c1` . Its measured Emax is 181

Consider `CS(=O)(=O)NCc1cc(F)cc(-c2nccc3[nH]c(-c4n[nH]c5ccc(-c6cncnc6)cc45)cc23)c1` . Its measured Emax is 40
